Molecular target: PSMA (Homo sapiens)
Construct: LNCaP cell extracts were prepared by sonication in NAALADase buffer; endogenous in cells
Sequence (Q04609 whole entry): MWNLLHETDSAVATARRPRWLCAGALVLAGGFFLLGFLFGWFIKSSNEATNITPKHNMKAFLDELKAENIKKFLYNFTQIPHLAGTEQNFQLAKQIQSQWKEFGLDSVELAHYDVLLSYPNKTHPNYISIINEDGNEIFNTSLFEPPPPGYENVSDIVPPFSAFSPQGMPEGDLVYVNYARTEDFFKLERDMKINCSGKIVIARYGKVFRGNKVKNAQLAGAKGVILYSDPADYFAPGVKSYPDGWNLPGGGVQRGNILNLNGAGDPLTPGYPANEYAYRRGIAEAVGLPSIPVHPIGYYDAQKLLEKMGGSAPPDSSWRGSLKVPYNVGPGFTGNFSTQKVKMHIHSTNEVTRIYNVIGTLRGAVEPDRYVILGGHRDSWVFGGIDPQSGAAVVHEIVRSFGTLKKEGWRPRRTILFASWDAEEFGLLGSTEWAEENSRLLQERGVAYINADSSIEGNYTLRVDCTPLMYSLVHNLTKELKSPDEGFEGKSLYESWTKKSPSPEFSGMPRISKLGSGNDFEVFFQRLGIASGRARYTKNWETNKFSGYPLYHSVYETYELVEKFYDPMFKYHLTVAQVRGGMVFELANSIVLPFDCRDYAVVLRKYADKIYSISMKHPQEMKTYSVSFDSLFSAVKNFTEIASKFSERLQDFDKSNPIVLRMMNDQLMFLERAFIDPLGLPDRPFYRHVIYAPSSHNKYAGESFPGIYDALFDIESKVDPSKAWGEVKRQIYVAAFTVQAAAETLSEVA
Test: NAALADase assay (NAAG hydrolysis, LNCaP cell extracts)
OBSERVATION_TYPE: IC50
Field: value (include unit after the number)

input: Item O=C(O)CCC(NC(=O)NC(CCCCNC(=O)CCCCCCC(=O)NC(CCCCNC(=O)CN1CCN(CC(=O)O)CCN(CC(=O)O)CCN(CC(=O)O)CC1)C(=O)O)C(=O)O)C(=O)O (stereo not shown) [DOTA-L1] has what recorded IC50?
output: 0.8 nM

----------
Recorded pKi, one value per entry.
Biological target: PSMA (Homo sapiens)
Construct: LNCaP cell extracts were prepared by sonication in NAALADase buffer; endogenous in cells
Experiment: NAALADase assay (NAAG hydrolysis, LNCaP cell extracts)
Conditions: LNCaP cell extracts; Cheng-Prusoff conversion; read-out: Ki (PSMA inhibitory activity)
Units for pKi: none; it is -log10 of a concentration expressed in mol/L.

Before answering, review these 2 worked examples.
[
  {
    "COMPOUND": "O=C(O)CCC(NC(=O)NC(CCCCNC(=O)CCCCCCCN(Cc1ccccn1)Cc1ccccn1)C(=O)O)C(=O)O (centres unmarked)",
    "ASSAY_RESULT": 8.73
  },
  {
    "COMPOUND": "O=C(O)CCC(NC(=O)NC(CCCCNC(=O)CCCCCCC(=O)NCCCCCCN(CC(=O)[O][Re])Cc1ccccn1)C(=O)O)C(=O)O.[C-]#[O+].[C-]#[O+].[C-]#[O+] (centres unmarked)",
    "ASSAY_RESULT": 9.77
  }
]

input: Give the measured pKi of O=C(O)CCC(NC(=O)NC(CCCCNC(=O)CCCCCCC(=O)NCCCCCCN(Cc1ccccn1)Cc1ccccn1)C(=O)O)C(=O)O.[Br-].[C-]#[O+].[C-]#[O+].[C-]#[O+].[Re+] (centres unmarked) .
output: 8.69

input: Consider the compound O=C(O)CCC(NC(=O)NC(CCCCNC(=O)CCCCCCC(=O)NCCCCC(C(=O)O)N(Cc1ccccn1)Cc1ccccn1)C(=O)O)C(=O)O.[Br-].[C-]#[O+].[C-]#[O+].[C-]#[O+].[Re+] (centres unmarked) and give its measured pKi.
output: 7.99

input: Look up pKi for this compound: O=C(O)CCC(NC(=O)NC(CCCCNC(=O)CCCCCCCN(Cc1ccccn1)Cc1ccccn1)C(=O)O)C(=O)O.[Br-].[C-]#[O+].[C-]#[O+].[C-]#[O+].[Re+] (centres unmarked)
output: 9.04

input: Would you mind telling me what pKi value was observed for O=C(O)CCC(NC(=O)NC(CCCCNC(=O)CCCCCCC(=O)NC(CCCCN(Cc1ccc2ccccc2n1)Cc1ccc2ccccc2n1)C(=O)O)C(=O)O)C(=O)O.[Br-].[C-]#[O+].[C-]#[O+].[C-]#[O+].[Re+] (centres unmarked) ?
output: 9.30

input: So what's the measured pKi for this one? O=C(O)CCC(NC(=O)NC(CCCCNC(=O)CCCCCCC(=O)NCCCCCCN(CC(=O)O)Cc1ccccn1)C(=O)O)C(=O)O (centres unmarked)
output: 8.60

input: If you can, please state the reported pKi value of O=C(O)CCC(NC(=O)NC(CCCCNC(=O)CCCCCCC(=O)NCCCCC(C(=O)O)N(Cc1ccccn1)Cc1ccccn1)C(=O)O)C(=O)O (centres unmarked) .
output: 8.97

input: GET /values?readout=pKi&item= O=C(O)CCC(NC(=O)NC(CCCCNC(=O)CCCCCCC(=O)NCCCCCCN(Cc1ccccn1)Cc1ccccn1)C(=O)O)C(=O)O (centres unmarked)
output: 9.35

input: Record request: pKi value, item O=C(O)CCC(NC(=O)NC(CCCCN(Cc1ccccn1)Cc1ccccn1)C(=O)O)C(=O)O (centres unmarked)
output: 8.12

input: Endpoint output: pKi of O=C(O)CCC(NC(=O)NC(CCCCN(Cc1ccccn1)Cc1ccccn1)C(=O)O)C(=O)O.[Br-].[C-]#[O+].[C-]#[O+].[C-]#[O+].[Re+] (centres unmarked) . Value?
output: 6.70

Cited source for all entries: patent US10039845B2
